experimental.protocol: in vitro
experimental.conditions: PAMPA
readout: Papp at 10 h, 100 μg/mL (×10⁻⁶ cm/s)

[
  {
    "compound": "O=C(Nc1ncc(N2CCOCC2)s1)c1ccoc1 [Compound 34]",
    "value.measured": 6.82
  },
  {
    "compound": "O=C(Nc1ncc(N2CCOCC2)s1)c1ccsc1 [Compound 35]",
    "value.measured": 9.24
  },
  {
    "compound": "CC(=O)Oc1ccccc1C(=O)Nc1ncc([N+](=O)[O-])s1 [NTZ, nitazoxanide, reference compound]",
    "value.measured": 1.26
  },
  {
    "compound": "O=C(Nc1ncc(N2CCOCC2)s1)c1ccc2ccccc2c1 [Compound 31]",
    "value.measured": 3.42
  },
  {
    "compound": "O=C(Nc1ncc(N2CCOCC2)s1)c1cccc2ccccc12 [Compound 30]",
    "value.measured": 5.76
  }
]

(1) O=C(Nc1ncc(N2CCOCC2)s1)c1ccc(O)cc1 [Compound 21]
(2) O=C(Nc1ncc(N2CCOCC2)s1)c1cccc(O)c1 [Compound 20]
IN: 1 or 2 : whose Papp at 10 h, 100 μg/mL is greater? I would appreciate it if you answered with the label of your choice.
OUT: 2
(2: 0.45 ×10⁻⁶ cm/s, 1: 0.09 ×10⁻⁶ cm/s)

(P) CC(=O)Oc1ccc(C(=O)Nc2ncc(N3CCOCC3)s2)cc1 [Compound 23]
(Q) O=C(Nc1ncc(N2CCOCC2)s1)c1cccs1 [Compound 33]
IN: P or Q : whose Papp at 10 h, 100 μg/mL is greater? I would appreciate it if you answered with the label of your choice.
OUT: Q
(Q: 10.4 ×10⁻⁶ cm/s, P: 4.92 ×10⁻⁶ cm/s)

(1) Cc1ccc(C(=O)Nc2ncc(N3CCOCC3)s2)s1 [Compound 37]
(2) CC(=O)Oc1cccc(C(=O)Nc2ncc(N3CCOCC3)s2)c1 [Compound 22]
IN: 1 or 2 : whose Papp at 10 h, 100 μg/mL is greater? I would appreciate it if you answered with the label of your choice.
OUT: 1
